# measured_target: Pyruvate kinase PKM (Homo sapiens)
# assay_procedure: Secondary assay for Activators of Human Pyruvate Kinase M2 isoform
# test_parameters: purified hPK-M2, LDH-coupled NADH fluorescence kinetic; series mostly up to 57.5 µM
Inconclusive results are not listed. Activity calls are given as the source filed them. Calls come from the whole dose curve; as a rule, active = well fitted activation curve with a large enough effect; inconclusive = small, poorly fitted or top-dose-only effect, or effect the other way; inactive = flat fitted curve, though single readings scatter.
Can you answer with just one of these options? active, inactive

Previously resolved entries follow.
In [3]: df
Out[3]:
                           substance_smiles  group_label
0  O=S(=O)(c1ccc(F)cc1)N1CCN(S(=O)(=O)c2ccc3c(c2)OCCO3)CC1       active
1  Cc1cc2c(s1)c1cnn(Cc3cc(C(F)(F)F)cc(Cl)c3F)c(=O)c1n2C       active
2  CCNc1cccc(S(=O)(=O)N2CCN(S(=O)(=O)c3ccc4c(c3)OCCO4)CC2)c1     inactive
3  CC(=O)Nc1cccc(S(=O)(=O)N2CCN(S(=O)(=O)c3c(F)cccc3F)CC2)c1       active

# ---- query compound ----
Exam item: So what was the verdict on Nc1cccc(S(=O)(=O)N2CCN(S(=O)(=O)c3c(F)cccc3F)CC2)c1 in this test?
Marked response: active

Source listed as PubChem BioAssay AID1540.
